Assay: Antagonist activity at human CCR10 expressed in mouse BA/F3 cells assessed as inhibition of human CCL27-dependent chemotaxis
pIC50: −log10 of the molar value.
Binary classification by pIC50, with 7 as an inclusive lower bound for yes; all other cases are no.

molecule=CC1CCN(C(=O)[C@@H](CCc2ccccc2)NS(=O)(=O)c2cc(Cl)c(N)c(Cl)c2)CC1 category_label=no
molecule="CC1CCN(C(=O)C(CCn2cccn2)NS(=O)(=O)c2cc(Cl)c(N)c(Cl)c2)CC1 (configuration not stated)" category_label=no
molecule="CC1CCN(C(=O)C(CCn2ccnc2Cl)NS(=O)(=O)c2cc(Cl)c(N)c(Cl)c2)CC1 (configuration not stated)" category_label=no
molecule="CC1CCN(C(=O)C(CCn2cccc2C#N)NS(=O)(=O)c2ccc3cc[nH]c3c2)CC1 (configuration not stated)" category_label=yes
molecule="CC1CCN(C(=O)C(CCn2cccc2C#N)NS(=O)(=O)c2ccc3[nH]ccc3c2)CC1 (configuration not stated)" category_label=yes
molecule="CC1CCN(C(=O)C(CCn2nccn2)NS(=O)(=O)c2cc(Cl)c(N)c(Cl)c2)CC1 (configuration not stated)" category_label=no
